Published pIC50 for Renin (Homo sapiens), assembled from different documents, is shown next.
Recall that pIC50 is obtained by taking minus log10 of the concentration measured in molar.

Take a look at these entries with their results.
Compound: CC(C)C[C@H](O)[C@H](O)[C@H](CC1CCCCC1)NC(=O)[C@H](Cc1c[nH]cn1)NC(=O)c1ccc2ccccc2n1
pIC50: 8.06
//
Compound: COC(=O)CN(C)C(=O)CC(Cc1cccc2ccccc12)C(=O)N[C@@H](Cc1c[nH]cn1)C(=O)N[C@@H](CC(C)C)C(O)C(=O)OC (mixture of isomers)
pIC50: 7.92

As a next step, examine the compound that follows.
Exercise: GET /values?readout=pIC50&system=Renin (Homo sapiens)&item= C=C[C@@H](C[C@H](O)[C@H](CC1CCCCC1)NC(=O)[C@H](Cc1c[nH]cn1)NC(=O)[C@@H](CC(N)=O)Cc1ccccc1)C(C)C
Solution: 6.85

----------
IC50 for Renin (Homo sapiens) - collated from the literature.
Please give a number only; it is taken to be in nM.

Look over these answered cases.
Compound: CCCSCC(=O)NCC[C@H](O)[C@H](CC1CCCCC1)NC(=O)C(Cc1cnc[nH]1)NC(=O)C(Cc1ccccc1)NC(=O)OC(C)(C)C (stereo partly drawn)
Assay target: Renin (Homo sapiens)
Display unit: nM
Observed: 25
//
Compound: CCCC[C@@H](C(=O)N[C@@H](CC1CCCCC1)[C@@H](O)[C@@H](O)CC(C)C)N1CCN(C(=O)N(C)CCOCOC)[C@H](Cc2ccccc2)C1=O
Assay target: Renin (Homo sapiens)
Display unit: nM
Observed: 22

Moving on to the next compound.
Exercise: So what's the measured IC50 for this one? CC(C)C[C@H](NC(=O)[C@H](Cc1c[nH]cn1)NC(=O)C(CC(=O)N1CCC[C@H]1CO)Cc1cccc2ccccc12)C(O)C(=O)OC(C)C (stereo partly drawn)
Solution: 23

----------
Field log10 IC50: reported value for Renin (Homo sapiens); entries drawn from several documents.
Record value = log10 of IC50 given in nM.

The cases that follow already have their log10 IC50 on record.
Cpd smiles: CCN1C[C@@H]([C@H](O)[C@H](CC2CCCCC2)NC(=O)[C@H](Cc2c[nH]cn2)NC(=O)c2ccc3ccccc3n2)OC1=O
Observed: 1.56

Cpd smiles: CC(C)C[C@H](O)[C@H](O)[C@H](CC1CCCCC1)NC(=O)CCC(=O)[C@H](Cc1ccccc1)NS(=O)(=O)N1CCOCC1
Observed: 1.94

Cpd smiles: O=C(N[C@@H](Cc1c[nH]cn1)C(=O)N[C@@H](CC1CCCCC1)[C@@H](O)[C@@H](O)C1CC1)c1cc2ccccc2[nH]1
Observed: 1.32

Cpd smiles: CC(C)C[C@H](O)[C@H](O)[C@H](CC1CCCCC1)NC(=O)[C@H](Cn1cccn1)NC(=O)[C@@H](CC(=O)N(C)CCc1ccccn1)Cc1ccccc1
Observed: -0.48

Exercise: What measured log10 IC50 is associated with CCCC[C@H](NC(=O)[C@@H](CC(=O)N(C)CCc1ccccn1)Cc1ccccc1)C(=O)N[C@@H](CC1CCCCC1)[C@@H](O)[C@@H](O)CC(C)C on Renin (Homo sapiens)?
Solution: -0.37

Exercise: Test system Renin (Homo sapiens); read-out log10 IC50; what value for CCCC[C@H](NC(=O)[C@@H](CC(=O)N(C)CCn1ccnc1)Cc1ccccc1)C(=O)N[C@@H](CC1CCCCC1)[C@@H](O)[C@@H](O)CC(C)C ?
Solution: -0.59

----------
Compiled record: pIC50 values for Renin (Homo sapiens) across several sources.
In plain terms, pIC50 is the concentration in mol/L turned into minus its base-10 logarithm.

Sample answers from the record:
Compound: C=C[C@@H](C[C@H](O)[C@H](CC1CCCCC1)NC(=O)[C@H](Cc1c[nH]cn1)NC(=O)[C@@H](CC(=O)N(C)C)Cc1ccccc1)C(C)C
pIC50: 7.92
//
Compound: COC(=O)[C@H](O)[C@H](CC(C)C)NC(=O)[C@H](Cc1cnc[nH]1)NC(=O)C(CC(=O)NCCc1ccccc1)Cc1cccc2ccccc12 (single isomer, unassigned)
pIC50: 7.51

Query compound follows.
Exercise: Quick check: pIC50 on Renin (Homo sapiens), item C#CC[C@H](NC(=O)[C@@H](CC(=O)N(C)CCN(CC)CC)Cc1ccccc1)C(=O)N[C@@H](CC1CCCCC1)[C@@H](O)[C@@H](O)CC(C)C ?
Solution: 9.00

----------
Field pIC50: reported value for Renin (Homo sapiens); entries drawn from several documents.
Units for pIC50: none; it is -log10 of a concentration expressed in mol/L.

Look over these answered cases.
Compound: CC(C)C[C@H](O)[C@H](O)[C@H](CC1CCCCC1)NC(=O)[C@H](Cc1c[nH]cn1)NC(=O)C1Cc2ccccc2C(=O)N1 (stereo partly drawn)
Assay target: Renin (Homo sapiens)
pIC50: 7.00
//
Compound: C=CCC(C(=O)NCC(C)CC)C(O)C(CC1CCCCC1)NC(=O)C(CSC)NC(=O)C(Cc1ccccc1)NC(=O)OC(C)(C)C (stereo not drawn)
Assay target: Renin (Homo sapiens)
pIC50: 9.00

Exercise: Test system Renin (Homo sapiens); read-out pIC50; what value for CC(C)C[C@H](O)[C@H](O)[C@H](CC1CCCCC1)NC(=O)[C@H](Cc1cscn1)NC(=O)[C@@H](Cc1ccccc1)CS(=O)(=O)C1CN(C)C1 ?
Solution: 9.36

----------
Dear all, I have gathered published IC50 values for Renin (Homo sapiens, UniProt P00797); the list follows.
API: value field is a number in nM; no unit string.

Known results for molecules:
Molecule: CC(C)C[C@H](NC(=O)[C@H](Cc1c[nH]cn1)NC(=O)C(Cc1cccc2ccccc12)Cc1cccc2ccccc12)[C@@H](O)CC(=O)NCc1cccc(CNC(=O)OCc2ccccc2)c1
Display unit: nM
IC50: 4000
--
Molecule: COC(=O)[C@@H]1CCCN1C(=O)CC(Cc1cccc2ccccc12)C(=O)N[C@@H](Cc1c[nH]cn1)C(=O)N[C@@H](CC(C)C)C(O)C(=O)NCCC(C)C (stereo partly drawn)
Display unit: nM
IC50: 84
--
Molecule: COC(=O)CNC(=O)CC(Cc1cccc2ccccc12)C(=O)N[C@@H](Cc1c[nH]cn1)C(=O)N[C@@H](CC(C)C)C(O)C(=O)OC(C)C (mixture of isomers)
Display unit: nM
IC50: 240

Exercise: Please report the recorded IC50 for CC(C)C[C@H](O)[C@H](O)[C@H](CC1CCCCC1)NC(=O)[C@H](C)CNC(=O)CCCc1ccccc1 (relative stereo) .
Solution: 125

Exercise: If you can, please state the reported IC50 value of CC(C)C[C@H](NC(=O)[C@H](Cc1c[nH]cn1)NC(=O)C(CC(=O)NCCc1ccccc1)Cc1cccc2ccccc12)C(O)CO (single isomer, unassigned) .
Solution: 590

Exercise: What does the record list as IC50 for COc1ccccc1COCCCOc1ccc([C@H]2CCNC[C@@H]2OCc2ccc3c(c2)N(CCNC(=O)C(F)(F)F)CCC3)cc1 ?
Solution: 0.05

----------
Collected from the literature: pIC50 of various molecules toward Renin (Homo sapiens, UniProt P00797).
Remember the convention: pIC50 equals -log10 of concentration in molar.

Example entries and their recorded answers appear below.
Molecule: CCCC[C@@H](C(=O)N[C@@H](CC1CCCCC1)[C@@H](O)[C@@H](O)CC(C)C)N1CCN(C(=O)N2CCOCC2)[C@H](Cc2ccccc2)C1=O
Observed: 7.66
--
Molecule: CC(C)C[C@H](O)[C@H](O)[C@H](CC1CCCCC1)NC(=O)[C@H](Cc1c[nH]cn1)N1CCc2c([nH]c3ccccc23)C1=O
Observed: 7.17
--
Molecule: CC(C)C[C@H](O)[C@H](O)[C@H](CC1CCCCC1)NC(=O)[C@H](Cc1c[nH]cn1)N1CCN(C(=O)N2CCOCC2)[C@H](Cc2ccccc2)C1=O
Observed: 6.64
--
Molecule: CC(C)C[C@H](NC(=O)C(C)NC(=O)C(Cc1ccccc1)NC(=O)OC(C)(C)C)[C@@H](O)CCOc1ccccc1 (stereo partly drawn)
Observed: 5.70
--
Molecule: COC(=O)[C@H](C)NC(=O)CC(Cc1cccc2ccccc12)C(=O)N[C@@H](Cc1c[nH]cn1)C(=O)N[C@@H](CC(C)C)C(O)C(=O)OC(C)C (stereo partly drawn)
Observed: 6.52

Now let's try a different one.
Exercise: Please tell me: pIC50 of CN(C[C@H](O)[C@H](CC1CCCCC1)NC(=O)[C@H](Cc1c[nH]cn1)NC(=O)[C@@H](CC(=O)C(C)(C)C)Cc1ccccc1)C(=O)[C@H](Cc1c[nH]cn1)NC(=O)CCc1ccccc1 , system Renin (Homo sapiens, UniProt P00797)?
Solution: 7.72

----------
Collected set of IC50 measured with Renin (Homo sapiens, UniProt P00797) across studies.
I only need the number, in nM, no unit after it.

Compound: CCC(C)CNC(=O)C(OC)C(O)C(CC1CCCCC1)NC(=O)[C@H](Cc1cnc[nH]1)NC(=O)[C@H](Cc1ccccc1)NC(=O)OC(C)(C)C (stereo partly shown)
Observed: 30
//
Compound: CC[C@H](C)CNC(=O)C[C@H](O)[C@H](CC(C)C)NC(=O)[C@H](CCCCNC(=O)CNC(=O)C(F)F)NC(=O)C(Cc1cccc2ccccc12)Cc1cccc2ccccc12
Observed: 62
//
Compound: CC[C@H](C)CNC(=O)C[C@H](O)[C@H](CC(C)C)NC(=O)[C@H](CCCCNC(=O)CCNC(C)=O)NC(=O)C(Cc1cccc2ccccc12)Cc1cccc2ccccc12
Observed: 25
//
Compound: CC(C)[C@@H](CCOC(=O)C(C)(C)C)C[C@H](O)[C@H](CC1CCCCC1)NC(=O)C(Cc1c[nH]cn1)NC(=O)[C@H](Cc1ccccc1)NC(=O)[C@H]1CCCN1C(=O)OC(C)(C)C (mixture of isomers)
Observed: 10
//
Compound: CCC(C)CNC(=O)C[C@H](O)[C@H](CC(C)C)NC(=O)[C@H](Cc1c[nH]cn1)NC(=O)[C@H](Cc1ccc(I)cc1)NC(=O)OC(C)(C)C (stereo partly shown)
Observed: 1000
//
Compound: CC(C)C[C@H](O)[C@H](O)[C@H](CC1CCCCC1)NC(=O)[C@H](Cc1cscn1)NC(=O)[C@@H](CC(=O)N(C)CCn1cccc1)Cc1ccccc1
Observed: 0.28
//
Compound: COC(=O)C[C@H](O)[C@H](CC(C)C)NC(=O)[C@H](Cc1cnc[nH]1)NC(=O)C(CC(=O)NCCc1ccccc1)Cc1cccc2ccccc12 (single isomer, unassigned)
Observed: 310
//
Compound: CC(C)C[C@H](O)[C@H](O)[C@H](CC1CCCCC1)NC(=O)CNC[C@H](Cc1ccccc1)NS(=O)(=O)N1CCOCC1
Observed: 2600

Exercise: Checklist item: IC50 tested on Renin (Homo sapiens, UniProt P00797), entry CCC(C)CNC(=O)CC(O)C(CC(C)C)NC(=O)C(Cc1cnc[nH]1)NC(=O)C(Cc1ccccc1)NS(=O)(=O)N(C)C (stereo not shown) , value?
Solution: 41
